Source listed as paper PMC12808120.

Target: IGF2BP3 (recombinant)
Assay: EMSA
Settings: no binding up to 100 nM; Kd >>100 nM; FBA/EMSA: 10 mM Tris-Cl pH 7.5, 50 mM KCl, 1 mM EDTA, 0.05% Triton X, 5% glycerol, 1 mM DTT, 37 C 20 min; pull-down: lysate mixed 1:1 with 2x TENT (100 mM Tris …)
pKd: −log10 of the molar value.
experimental.readout: pKd

Asked: Tell me the measured pKd of UAAUAAUAAUAAUAAUAAUAAUAAUAAUAAUAAUAAUAAUAAUAAUAAUAAUAAUAAUAA [(UAA)20 RNA] , please.
Given back: < 7.00
